test.target: CYP3A4 (Homo sapiens, UniProt P08684)
Construct: The primary incubation mixture contains HLM, potassium phosphate buffer; from tissue; host or cells: human liver microsomes (HLM)
Sequence (P08684 whole entry): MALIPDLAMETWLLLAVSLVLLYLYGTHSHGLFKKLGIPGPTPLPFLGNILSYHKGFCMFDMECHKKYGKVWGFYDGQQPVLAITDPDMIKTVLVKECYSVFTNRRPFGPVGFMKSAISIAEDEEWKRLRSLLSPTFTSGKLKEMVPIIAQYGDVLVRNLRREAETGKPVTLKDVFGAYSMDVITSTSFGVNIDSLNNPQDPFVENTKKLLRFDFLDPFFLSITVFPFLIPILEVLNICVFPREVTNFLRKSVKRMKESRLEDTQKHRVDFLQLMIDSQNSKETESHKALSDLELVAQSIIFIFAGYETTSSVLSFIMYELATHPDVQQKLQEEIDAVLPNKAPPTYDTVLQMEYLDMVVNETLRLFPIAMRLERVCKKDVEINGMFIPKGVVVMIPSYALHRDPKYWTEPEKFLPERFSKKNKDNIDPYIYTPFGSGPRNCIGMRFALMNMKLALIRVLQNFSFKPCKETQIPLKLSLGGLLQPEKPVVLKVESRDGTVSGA
run.description: Inhibition of NEN 4-hydroxylation in human liver microsomes (fluorescence high-throughput screening)
Assay type: in vitro ADME
condition.details: HLM, NEN probe, mean ± S.D. (n = 3); read-out: IC50 against CYP3A4 (NEN 4-hydroxylation)
Method: The primary incubation mixture contains HLM, potassium phosphate buffer (pH 7.4, 100 mM), G-6-P (10 mM), G-6-P dehydrogenase (1 U/ml), MgCl2 (4 mM), NEN (50 µM), extracts of herbal medicine (20 µg/ml), or components. […] NEN 4-hydroxylation were utilized as the probe reaction for CYP3A4, and fluorescence image of 96-well microplates were measured by a fluorescent image analyzer (GE Amersham Typhoon, Sweden) under the excitation wavelength of 488 nm (E m: 570 ± 15 nm). […]
measure: pIC50
Hey, just a heads up that pIC50 is the negative log base 10 of the concentration in molar.

Example cases with answers are listed next.
compound: O=c1cc(-c2ccc(O)c(-c3c(O)cc(O)c4c(=O)cc(-c5ccc(O)cc5)oc34)c2)oc2cc(O)cc(O)c12 [AMF, Amentoflavone]
measure: pIC50
value.reported: 6.73
//
compound: COc1ccc(-c2cc(=O)c3c(O)cc(O)cc3o2)cc1-c1c(O)cc(O)c2c(=O)cc(-c3ccc(O)cc3)oc12 [DGK, bilobetin]
measure: pIC50
value.reported: 6.79
//
compound: COc1cc(O)c2c(=O)cc(-c3ccc(OC)c(-c4c(O)cc(O)c5c(=O)cc(-c6ccc(O)cc6)oc45)c3)oc2c1 [GK, ginkgetin]
measure: pIC50
value.reported: 6.97

Name the reported pIC50 value associated with the compound COc1ccc(-c2cc(=O)c3c(O)cc(O)c(-c4cc(-c5cc(=O)c6c(O)cc(O)cc6o5)ccc4OC)c3o2)cc1 [IGK, isoginkgetin]
6.01

---

test.target: CYP3A4 (Homo sapiens, UniProt P08684)
Construct: The primary incubation mixture contains HLM, potassium phosphate buffer; from tissue; host or cells: human liver microsomes (HLM)
run.description: Inhibition of CYP3A4-mediated oxidation of clinical drugs (tamoxifen, gefitinib, ticagrelor) in HLM, LC-MS/MS
Format: in vitro ADME
condition.details: tamoxifen 20 μM, N-demethylation, 30 min, ± SD, read-out: IC50 toward tamoxifen
measure: IC50 (nM)
Report as a plain number; the unit nM is understood.

Example cases with answers are listed next.
query.smiles: O=c1cc(-c2ccc(O)c(-c3c(O)cc(O)c4c(=O)cc(-c5ccc(O)cc5)oc34)c2)oc2cc(O)cc(O)c12
measure: IC50
unit.of.measurement: nM
value.reported: 2720

query.smiles: COc1ccc(-c2cc(=O)c3c(O)cc(O)cc3o2)cc1-c1c(O)cc(O)c2c(=O)cc(-c3ccc(O)cc3)oc12
measure: IC50
unit.of.measurement: nM
value.reported: 1020

query.smiles: COc1ccc(-c2cc(=O)c3c(O)cc(O)c(-c4cc(-c5cc(=O)c6c(O)cc(O)cc6o5)ccc4OC)c3o2)cc1
measure: IC50
unit.of.measurement: nM
value.reported: 4660

We next turn to a different compound, shown below.
Name the reported IC50 value associated with the compound COc1cc(O)c2c(=O)cc(-c3ccc(OC)c(-c4c(O)cc(O)c5c(=O)cc(-c6ccc(O)cc6)oc45)c3)oc2c1
478

---

test.target: CYP3A4 (Homo sapiens, UniProt P08684)
Construct: The primary incubation mixture contains HLM, potassium phosphate buffer; from tissue; host or cells: human liver microsomes (HLM)
run.description: Inhibition kinetic characterization with NEN 4-hydroxylation in HLM
Format: in vitro ADME
condition.details: mixed-inhibition model
Let's look at some molecules and their measured ɑ (degree to which inhibitor binding influences enzyme-substrate binding).

query.smiles: COc1ccc(-c2cc(=O)c3c(O)cc(O)cc3o2)cc1-c1c(O)cc(O)c2c(=O)cc(-c3ccc(O)cc3)oc12
value.reported: 2.98
--
query.smiles: O=c1cc(-c2ccc(O)c(-c3c(O)cc(O)c4c(=O)cc(-c5ccc(O)cc5)oc34)c2)oc2cc(O)cc(O)c12
value.reported: 5.55
--
query.smiles: COc1cc(O)c2c(=O)cc(-c3ccc(OC)c(-c4c(O)cc(O)c5c(=O)cc(-c6ccc(O)cc6)oc45)c3)oc2c1
value.reported: 4.56

We next turn to a different molecule, shown below.
Name the reported ɑ (degree to which inhibitor binding influences enzyme-substrate binding) value associated with the molecule COc1ccc(-c2cc(=O)c3c(O)cc(O)c(-c4cc(-c5cc(=O)c6c(O)cc(O)cc6o5)ccc4OC)c3o2)cc1
2.79
